Entry source: patent US20240317721A1

study_system: KRasG12C (M1-K169, biotinylated on the N-terminus) (Homo sapiens (Human), UniProt P01116, G12C)
method: Covalent competition assay: scintillation proximity assay (SPA) quantifying covalent modification of KRASG12C
condition_info: competition with radiolabeled covalent probe (Compound B/Compound A), 2 hours incubation, 10 nM KRasG12C
recorded_endpoint: IC50 (nM)

C=CC(=O)N1CC2(CC(n3nc(N4CCN(C(C)(C)C(=O)OC)CC45CCC5)c(-c4c(Cl)c(C)cc5[nH]ncc45)c3C)C2)C1 (single isomer, unassigned) [Example 180b] : 17
C=CC(=O)N1CC2(CC(n3nc(N4CCN(C(COC)COC)C[C@]4(C)CC)c(-c4c(Cl)c(C)cc5[nH]ncc45)c3C)C2)C1 (single isomer, unassigned) [Example 187b] : 5
C=CC(=O)N1CC2(CC(n3nc(N4CCC(O)CC4(C)C)c(-c4c(Cl)c(C)cc5[nH]ncc45)c3C)C2)C1 (single isomer, unassigned) [Example 29b] : 32
C=CC(=O)N1CC2(CC(n3nc(N4CCN(C5COC5)C[C@]4(C)CC)c(-c4c(Cl)c(Cl)cc5[nH]ncc45)c3C)C2)C1 (single isomer, unassigned) [Example 155a] : 4000

(P) C=CC(=O)N1CC2(CC(n3nc(N4CCC(CN5CCOCC5)CC4(C)CC)c(-c4c(Cl)c(C)cc5[nH]ncc45)c3C)C2)C1 (single isomer, unassigned) [Example 222b]
(Q) C=CC(=O)N1CC2(CC(n3nc(N4CCC(N5C[C@H](OC)[C@H](OC)C5)CC4(C)C)c(-c4c(Cl)c(C)cc5[nH]ncc45)c3C)C2)C1 (single isomer, unassigned) [Example 102b]
Input line: When their IC50 values are compared, which is larger, P or Q ? Which one? Tell me its label.
Output line: Q
